measurement-protocol: Caco2 permeability (bi-directional)
Format: in vitro ADME, human
experimental-setup: human, pH 7.4; Caco-2, apical to basolateral; read-out: Papp (A2B)
reported-metric: Papp A→B at 1 h, 10 µM (×10⁻⁶ cm/s)

Would you please look over these solved cases?
molecule	meas-value
CC1CCCN(C(=O)c2ccc(-c3cccc4nc(NC(=O)C5CC5)nn34)cc2)C1 (centres unmarked)	14.7
O=C(NCCc1ccc(C(F)(F)F)cc1)c1ccc(-c2cccc3nc(NC(=O)C4CC4)nn23)cc1	23.8
O=C(Nc1nc2cccc(-c3ccc(C(=O)N4CCC(C(=O)c5ccccc5)CC4)cc3)n2n1)C1CC1	23.3
Cn1ccc(COc2ccc(-c3cccc4nc(NC(=O)C5CC5)nn34)cc2)n1	28.8

a = O=C(Nc1nc2cccc(-c3ccc(C(=O)N4CCCC(C(F)(F)F)C4)cc3)n2n1)C1CC1 (centres unmarked)
b = O=C(Nc1nc2cccc(-c3ccc(CN4CCS(=O)(=O)CC4)cc3)n2n1)C1CC1
c = O=C(Nc1nc2cccc(-c3ccc(CNc4ncc(F)cc4F)cc3)n2n1)C1CC1
d = N#CCc1ccc(OCc2ccc(-c3cccc4nc(NC(=O)C5CC5)nn34)cc2)cc1
Query: Arrange the 4 molecules from largest to smallest Papp A→B at 1 h, 10 µM. Give your ranking as a list of the labels in the requested order.
Response: c, d, a, b
(c: 24 ×10⁻⁶ cm/s, d: 13.9 ×10⁻⁶ cm/s, a: 6.9 ×10⁻⁶ cm/s, b: 4.65 ×10⁻⁶ cm/s)

---

measurement-protocol: Caco2 permeability (bi-directional)
Type: in vitro ADME, human
experimental-setup: human, pH 7.4; Caco-2, apical to basolateral; read-out: Papp (A2B)
reported-metric: Papp A→B at 1 h, 10 µM (×10⁻⁶ cm/s)

Some entries whose results are on file:
smiles-repr	reported-metric	meas-value
N#CC1CCN(C(=O)c2ccc(-c3cccc4nc(NC(=O)C5CC5)nn34)cc2)CC1	Papp A→B at 1 h, 10 µM	0.45
O=C(Nc1nc2cccc(-c3ccc4c(ccn4C(=O)CCc4ccccc4)c3)n2n1)C1CC1	Papp A→B at 1 h, 10 µM	0.5

A = O=C(Nc1nc2cccc(-c3ccc(OCc4ccccc4)cc3)n2n1)C1CC1
B = O=C(NCCc1cnn(-c2ccccc2)c1)c1ccc(-c2cccc3nc(NC(=O)C4CC4)nn23)cc1
Query: Among A and B , which shows a numerically higher Papp A→B at 1 h, 10 µM result? Answer by quoting the chosen item's label.
Response: A

---

measurement-protocol: Microsomal stability, rat liver microsomes
Format: in vitro ADME
experimental-setup: percentage of compound remaining after 60 minutes, 3 μM compound
reported-metric: Microsomal Stability Rat (%)

Past entries and their recorded results:
compound	reported-metric	meas-value
CN1CCN(C(=O)c2ccc(-c3cccc4nc(NC(=O)C5CC5)nn34)cc2)CC1 [Compound 71]	Microsomal Stability Rat (%)	**** (**** 76-100)
O=C(NCCOc1ccccc1)c1ccc(-c2cccc3nc(NC(=O)C4CC4)nn23)c(F)c1 [Compound 100]	Microsomal Stability Rat (%)	* (* 0-25)
CCCCN(CCCN1CCOCC1)C(=O)c1ccc(-c2cccc3nc(NC(=O)C4CC4)nn23)cc1 [Compound 90]	Microsomal Stability Rat (%)	** (** 26-50)
O=C(CCOc1ccccc1)Nc1ccc(-c2cccc3nc(NC(=O)C4CC4)nn23)cc1 [Compound 108]	Microsomal Stability Rat (%)	* (* 0-25)
O=C(Nc1nc2cccc(-c3ccc(OCC4CCCCC4)cc3)n2n1)C1CC1 [Compound 41]	Microsomal Stability Rat (%)	** (** 26-50)
O=C(Nc1nc2cccc(-c3ccc(OCc4ccc(C(F)(F)F)nc4)cc3)n2n1)C1CC1 [Compound 78]	Microsomal Stability Rat (%)	**** (**** 76-100)
O=C(Nc1ccc(-c2cccc3nc(NC(=O)C4CC4)nn23)cc1)c1ccccc1 [Compound 21]	Microsomal Stability Rat (%)	**** (**** 76-100)

Now for the compound whose Microsomal Stability Rat (%) we want.
Summary for this compound, N#CCc1ccccc1NCc1ccc(-c2cccc3nc(NC(=O)C4CC4)nn23)cc1 [Compound 225] : Microsomal Stability Rat (%) is * (* 0-25)
